tested on: Trypanosoma brucei; test: DNDI: Inhibition of Human African Trypanosomiasis, SBRI 427, in vitro at 2 ug.mL-1; format: functional
Among all 4,400 compounds or so, about 390 (8.9%) showed an effect of 50% or more. Many of the other results were omitted from the sample, so strong results are more common in it than they were.
# % inhibition annotations
Reply numerically in %, unit not repeated.

Here is how some compounds turned out for % inhibition.
In [3]: df
Out[3]:
                                   compound  experimental_readout  test_result
0     Cc1ccccc1-c1nc(CN(Cc2ccccc2)C(C)C)co1          % inhibition            7
1  COc1ccc(CN/C(=N\O)c2cccnc2Oc2ccccc2OC(C)C)cc1          % inhibition          -18

Trypanosoma brucei % inhibition of CCOc1ccccc1-c1nc(CN(CCC#N)CC2CCCO2)co1 (stereo not given) is -20

Trypanosoma brucei % inhibition of COc1cccc(-c2nc(CN3CCCCC3)co2)c1 is 12

Trypanosoma brucei % inhibition of CC1CC(N/C(=N\O)c2cccnc2Oc2ccccc2OC(C)C)CC(C)(C)C1 (stereo not given) is 99

* * *

test system: Trypanosoma brucei; experiment: DNDI: Inhibition of Human African Trypanosomiasis, SBRI 427, in vitro at 2 ug.mL-1; type: functional
In all, about 4,400 compounds went through this assay and about 390 (8.9%) showed an effect of 50% or more. The list comes from a sample in which strong results are over-represented; it also holds close analogues and randomly drawn compounds.
Experimental readout: % inhibition

Here is how some compounds turned out for % inhibition.
                                   compound   system_under_test  experimental_readout  test_result
0  Cc1cc(C)cc(Oc2ccc(/C(=N/O)NCC3CCCCC3)cn2)c1  Trypanosoma brucei          % inhibition          21%
1  CCOc1ccccc1-c1nc(CNCc2cc(OC)c(OC)c(OC)c2)co1  Trypanosoma brucei          % inhibition           8%
2  CCOc1ccccc1CN/C(=N\O)c1ccc(C)nc1OCc1ccccc1F  Trypanosoma brucei          % inhibition           8%
3  Cc1cccc(-c2nc(CNC(C)c3cccc4ccccc34)co2)c1 (stereo not drawn)  Trypanosoma brucei          % inhibition          14%
4  Cc1cc(C)cc(Oc2ccc(/C(=N/O)NCC3CCCO3)cn2)c1 (stereo not drawn)  Trypanosoma brucei          % inhibition          -3%
5  CC(=O)c1ccc(N/C(=N\O)c2cccnc2Oc2ccccc2OCc2ccccc2)cc1  Trypanosoma brucei          % inhibition          -2%

Value of % inhibition reported for the compound CCCN/C(=N\O)c1cccnc1Oc1ccccc1OCc1ccccc1 is -7%

Value of % inhibition reported for the compound COc1cc(-c2nc(CNC3CCc4ccccc43)co2)cc(OC)c1OC (stereo not drawn) is 28%

Value of % inhibition reported for the compound COc1ccc(CNCc2coc(-c3cccs3)n2)cc1OC is -8%

Value of % inhibition reported for the compound COc1ccc(-c2nc(CN3CCN(c4cccc(Cl)c4)CC3)co2)cc1 is 10%

Value of % inhibition reported for the compound COC(=O)C1CCN(/C(=N\O)c2cccnc2OCC(C)C)CC1 is 5%

* * *

test system: Trypanosoma brucei; assay: DNDI: Inhibition of Human African Trypanosomiasis, SBRI 427, in vitro at 2 ug.mL-1; type: functional
Among all 4,400 compounds or so, about 390 (8.9%) showed an effect of 50% or more. Only a selection was taken, and strong results are over-represented in it overall.
# % inhibition annotations
Reply numerically in %, unit not repeated.

Here is how some compounds turned out for % inhibition.
                               entry_smiles   system_under_test  test_result
0    Clc1ccc(-c2nc(CNCCN3CCOCC3)co2)c(Cl)c1  Trypanosoma brucei            0
1  CCOc1ccc(Oc2cc(/C(=N/O)Nc3ccccc3)ccn2)cc1  Trypanosoma brucei           24
2       C#CC1(NCc2coc(-c3ccccc3Cl)n2)CCCCC1  Trypanosoma brucei          -12

Trypanosoma brucei % inhibition of Cc1cccc(CNCc2coc(-c3cccc(C)c3)n2)c1 is -10
